This listing pairs compounds with measured pIC50.
- subject of test: hT2R54 (Homo sapiens, UniProt P59534)
- Construct: expressed in transfected cells; it overexpresses a promiscuous G protein
- Sequence (P59534 whole entry): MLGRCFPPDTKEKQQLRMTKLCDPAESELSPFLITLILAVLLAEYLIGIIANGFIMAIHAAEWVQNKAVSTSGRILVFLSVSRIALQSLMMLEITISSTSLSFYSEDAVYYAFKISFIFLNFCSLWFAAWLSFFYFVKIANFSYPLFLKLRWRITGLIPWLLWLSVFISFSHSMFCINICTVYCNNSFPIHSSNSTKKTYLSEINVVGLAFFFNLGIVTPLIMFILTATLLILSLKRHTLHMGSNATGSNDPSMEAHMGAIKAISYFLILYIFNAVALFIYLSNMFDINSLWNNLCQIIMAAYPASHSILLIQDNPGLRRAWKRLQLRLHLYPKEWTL
- test protocol: Cell-based assay for measuring hT2R54 inhibition (FLIPR calcium, Fluo4AM, acetaminophen as bitter agonist)
- experimental setup: other T2R54 bitter blockers (table after b418); read-out: hT2R54 IC50
pIC50: −log10 of the molar value.
quantity: pIC50

- smiles notation: "COc1cc2ncnc(NCc3cccc4c3OCO4)c2cc1OC"
  quantity: "pIC50"
  quantitative readout: 5.74
- smiles notation: "Cc1cc(N2CCC(C(N)=O)CC2)nc(-c2ccccc2)n1"
  quantity: "pIC50"
  quantitative readout: 5.54

---

- subject of test: hT2R54 (Homo sapiens, UniProt P59534)
- Construct: expressed in transfected cells; it overexpresses a promiscuous G protein
- test protocol: Cell-based assay for measuring hT2R54 inhibition (FLIPR calcium, Fluo4AM, acetaminophen as bitter agonist)
- experimental setup: Table 9; read-out: hT2R54 IC50
- Protocol: Cells stably expressing hT2R54 and a promiscuous G protein were seeded in 384 well plates 24 hours prior to the experiment. […] Baseline was recorded for 10 seconds, then 25 μl of […] was added onto 25 μl of cells and resulting changes in fluorescence were monitored over an additional 3 minutes. […] The ability of a test compound that blocks bitter taste elicited through hT2R54 was measured in this assay, as follows. […]
pIC50: −log10 of the molar value.
quantity: pIC50

- compound: "COc1cc2c(cc1NC(=O)Cc1ccsc1)OCO2"
  quantitative readout: 6.06
- compound: "CC(=O)c1cc2c(cc1NC(=O)Cc1ccc(O)cc1)OCO2"
  quantitative readout: 6.26
- compound: "COC(=O)c1cc2c(cc1NC(=O)CC1CCOCC1)OCCO2"
  quantitative readout: 4.92
- compound: "CC(=O)c1cc2c(cc1NC(=O)CC1CCCC1)OCO2"
  quantitative readout: 6.38
- compound: "CC(=O)c1cc2c(cc1NC(=O)CC(C)C)OCO2"
  quantitative readout: 5.52
- compound: "CC(=O)c1cc2c(cc1NC(=O)CCc1ccccc1)OCO2"
  quantitative readout: 5.91
- compound: "CC(=O)c1cc2c(cc1NC(=O)CC1CCCN(C(=O)OC(C)(C)C)C1)OCO2 (stereo not shown)"
  quantitative readout: 6.05
- compound: "COc1cccc(CC(=O)Nc2cc3c(cc2C(C)=O)OCO3)c1"
  quantitative readout: 5.74
- compound: "CC(=O)c1cc2c(cc1NC(=O)Cc1c(C)nn(C)c1C)OCO2"
  quantitative readout: 5.76
- compound: "CC(=O)c1cc2c(cc1NC(=O)Cc1c(C)noc1C)OCO2"
  quantitative readout: 5.42
- compound: "COc1cc2c(cc1NC(=O)CC1CCCCO1)OCO2 (stereo not shown)"
  quantitative readout: 5.65
- compound: "COc1cc2c(cc1NC(=O)C(C)C1CCN(C(=O)OC(C)(C)C)CC1)OCO2 (stereo not shown)"
  quantitative readout: 5.52
- compound: "CC(=O)c1cc2c(cc1NC(=O)Cc1ccsc1)OCO2"
  quantitative readout: 6.15
- compound: "COc1ccccc1CC(=O)Nc1cc2c(cc1C(C)=O)OCO2"
  quantitative readout: 6.09
- compound: "CC(=O)c1cc2c(cc1NC(=O)Cc1ccco1)OCO2"
  quantitative readout: 5.64
- compound: "COc1ccc(OC)c(CC(=O)Nc2cc3c(cc2C(C)=O)OCO3)c1"
  quantitative readout: 5.83
- compound: "COc1cc2c(cc1NC(=O)CC1CCCC1)OCO2"
  quantitative readout: 6.51
- compound: "CC(=O)c1cc2c(cc1NC(=O)CC1CCOC1)OCO2 (stereo not shown)"
  quantitative readout: 5.86
